Target: T1, human EpCAM protein (human, UniProt P16422 24-265, biotinylated in the Octet assays (site not stated))
T1 construct: also called hu EpCAM; biotinylated human EpCAM protein
T1 sequence: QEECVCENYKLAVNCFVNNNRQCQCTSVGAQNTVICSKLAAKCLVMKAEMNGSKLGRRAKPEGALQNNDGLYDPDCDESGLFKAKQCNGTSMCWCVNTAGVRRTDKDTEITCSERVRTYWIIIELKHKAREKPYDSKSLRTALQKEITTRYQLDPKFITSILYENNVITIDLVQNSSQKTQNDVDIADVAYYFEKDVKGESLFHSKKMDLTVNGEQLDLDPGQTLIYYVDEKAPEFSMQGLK
Assay: colorimetric ELISA
Reported Human EpCAM/Control values are given for each entry in this list.

Binder: EPL82 (VHH) VHH: QVQLQESGGGLVQAGGSLKLSCTASGTILSTMAWYRQAPGKQRELVATISRGGTTNYSDSVKGRFAISRDSTKNTVYLQMNSLKPEDTAVYYCNTPLTDYGMGYNWGQGTQVTVSS
Human EpCAM/Control: 4
--
Binder: EPL15 (VHH) VHH: QVQLQESGGGSVLAGGSLRLSCAASGFTFSSYYMSWVRQAPGKGLEWVSGIHYTGDWTNYADSVKGRFTISRDNAKNELYLEMNNLKPEDTAVYYCARGSDKGQGTQVTVSS
Human EpCAM/Control: 8
--
Binder: EPL152 (VHH) VHH: QVQLQESGGGLVQAGGSLRLSCVHSGSIFRASTMAWYRQAPGKQRELVAQIMSGGGTNYAGSVKGRFTISRDNANNTVYLQMNSLKPEDTAVYYCNAAQITSWGPKVYWGQGTQVTVSS
Human EpCAM/Control: 4
--
Binder: EPL153 (VHH) VHH: QVQLQESGGGLVQPGGSLRLSCAASGFTFSDWAMSWVRQAPGKGLEWVSSIHYGDHTTHYADFVKGRFTISRDDAKNTLYLQMNSLKPEDTAVYYCEKGTTRGQGTQVTVSS
Human EpCAM/Control: 31
